Target sequence: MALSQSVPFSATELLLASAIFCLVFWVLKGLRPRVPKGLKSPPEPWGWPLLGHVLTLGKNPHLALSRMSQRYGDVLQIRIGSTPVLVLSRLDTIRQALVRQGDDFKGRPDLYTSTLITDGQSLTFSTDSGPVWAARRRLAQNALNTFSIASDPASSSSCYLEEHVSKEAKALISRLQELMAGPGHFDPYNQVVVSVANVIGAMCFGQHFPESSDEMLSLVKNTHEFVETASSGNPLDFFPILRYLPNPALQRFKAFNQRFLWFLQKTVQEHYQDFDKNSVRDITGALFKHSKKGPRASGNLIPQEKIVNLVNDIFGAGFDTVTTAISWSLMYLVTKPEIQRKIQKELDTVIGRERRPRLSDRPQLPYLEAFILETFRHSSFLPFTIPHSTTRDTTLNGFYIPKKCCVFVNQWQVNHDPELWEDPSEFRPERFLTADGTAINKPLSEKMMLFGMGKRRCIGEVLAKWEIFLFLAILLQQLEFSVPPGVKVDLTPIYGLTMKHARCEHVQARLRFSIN
readout kind: IC50 (µM)
Report the value in µM with no unit label.

| given smiles | readout kind | observed result |
| --- | --- | --- |
| CCCCc1ccc(S(=O)(=O)Nc2ccc3c(c2)CCN(C)CC3)cc1 | IC50 | 23 |

Consider the record given below.
Query string: Return reported IC50; argument: CC(C)Nc1cc2c(cc1NS(=O)(=O)c1ccc(-c3ccc(Cl)cc3)cc1)CCN(C)CC2
Result string: 51
